Target: Alpha-1B adrenergic receptor (Homo sapiens, UniProt P35368)
Sequence (P35368 whole entry): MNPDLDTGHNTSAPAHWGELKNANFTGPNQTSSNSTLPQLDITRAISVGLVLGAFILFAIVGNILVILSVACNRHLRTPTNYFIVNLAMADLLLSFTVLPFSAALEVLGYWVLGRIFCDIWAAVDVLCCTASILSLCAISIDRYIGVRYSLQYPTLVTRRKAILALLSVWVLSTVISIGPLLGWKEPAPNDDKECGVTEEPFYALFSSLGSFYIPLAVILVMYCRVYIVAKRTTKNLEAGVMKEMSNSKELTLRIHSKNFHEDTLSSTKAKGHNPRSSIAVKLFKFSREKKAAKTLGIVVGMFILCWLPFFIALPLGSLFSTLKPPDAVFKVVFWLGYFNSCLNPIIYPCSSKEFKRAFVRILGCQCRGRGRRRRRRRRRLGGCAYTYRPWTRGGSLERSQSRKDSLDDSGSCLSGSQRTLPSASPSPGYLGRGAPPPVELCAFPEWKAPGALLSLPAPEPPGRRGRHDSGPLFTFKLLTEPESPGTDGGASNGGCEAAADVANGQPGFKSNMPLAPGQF
The compounds below each have a reported Ki tested on Alpha-1B adrenergic receptor (Homo sapiens, UniProt P35368); the values come from various publications.
Property Label: Ki

- Compound: "CN1CCc2c(c3cccc4c3n2Cc2ccccc2C4)C1"
  Measured Value: "> 10000 nM"
- Compound: "O=C1CCCN1Cc1cc(CN2CCN(c3ccccc3Oc3ccccc3)CC2)on1"
  Measured Value: "> 5000 nM"
- Compound: "COc1ccccc1N1CCN(C[C@H]2OCCO[C@@H]2c2ccccc2)CC1 (relative stereo)"
  Measured Value: "> 1000 nM"
- Compound: "Cc1ccc(N2C(=O)c3ccc(C(=O)NC[C@H](O)CN4CCN(c5ccccc5OC(C)C)CC4)cc3C2=O)cc1"
  Measured Value: "> 1650 nM"
- Compound: "COc1ccccc1N1CCN(Cc2ccc(CN3CCCCCC3=O)s2)CC1"
  Measured Value: "> 5000 nM"
- Compound: "COc1ccc2ccccc2c1OCCNC[C@@H]1COc2ccccc2O1"
  Measured Value: "85.1 nM"
- Compound: "Cc1cccc(S(=O)(=O)N(C)[C@H](C)CCN2CCC(C)CC2)c1"
  Measured Value: "> 15800 nM"
- Compound: "CCc1nc2c3ccccc3nc-2c(O)n1CCN1CCN(c2ccccc2OC)CC1"
  Measured Value: "245 nM"
- Compound: "COC(=O)C1=C(C)NC(=O)N(C(=O)NCCCN2CCC(c3ccccc3)(c3ccccc3)CC2)C1c1ccc(F)c(F)c1 (stereo unspecified)"
  Measured Value: "36 nM"
- Compound: "COc1ccccc1N1CCN(CC2CCC(c3ccccc3)(c3ccccc3)O2)CC1 (stereo unspecified)"
  Measured Value: "8.91 nM"
- Compound: "COc1ccccc1N1CCN(C[C@@H]2CO[C@@](CN3C(=O)CC4(CCCC4)CC3=O)(c3ccccc3)O2)CC1 (relative stereo)"
  Measured Value: "10 nM"
